Source of measurements: ChEMBL document CHEMBL1150393

- protocol-summary: Biodistribution in uvea of C57BL/6 mouse bearing mouse B16-F0 cells at 0.74 to 0.92 MBq, iv after 72 hrs
- Type: ADME, organism-based, Uveal tract
- study-conditions: in vivo
With a cut-off of 7 % ID/g, any Drug uptake strictly below it is called Y; any Drug uptake meeting it or above is called N.

1) CCN(CC)CCNC(=O)c1ccc2cc([125I])ccc2n1.Cl.Cl    N
2) CCN(CC)CCNC(=O)c1cn2cc([125I])ccc2n1.Cl.Cl    N
3) CCN(CC)CCNC(=O)c1nc2cc([125I])ccc2[nH]1.Cl.Cl    N
4) CCN(CC)CCNC(=O)c1cc2c([125I])cccc2s1.Cl    N
5) CCN(CC)CCNC(=O)c1cc2cc([125I])ccc2[nH]1.Cl    Y

---

- Test system: Brain
- protocol-summary: Biodistribution in brain of C57BL/6 mouse bearing mouse B16-F0 cells at 0.74 to 0.92 MBq, iv after 1 hr
- Assay type: ADME, organism-based
- study-conditions: in vivo
metric: Drug uptake (% ID/g)

1. CCN(CC)CCNC(=O)c1cc2cc([125I])ccc2[nH]1.Cl    4.84
2. CCN(CC)CCNC(=O)c1ccc2cc([125I])ccc2c1.Cl    4.37
3. CCN(CC)CCNC(=O)c1ccc2cc([125I])ccc2n1.Cl.Cl    1.96
4. CCN(CC)CCNC(=O)c1ccc2cncc([125I])c2n1.Cl.Cl    0.35
5. CCN(CC)CCNC(=O)c1cc2c([125I])cccc2cn1.Cl.Cl    0.3
6. CCN(CC)CCNC(=O)c1cnc2cc([125I])ccc2n1.Cl.Cl    2.34

---

- Tested on: Pancreas
- protocol-summary: Biodistribution in pancreas of C57BL/6 mouse bearing mouse B16-F0 cells at 0.74 to 0.92 MBq, iv after 3 hrs
- Format: ADME, organism-based
- study-conditions: in vivo
# maps each entry to its Drug uptake
metric: Drug uptake (% ID/g)

1) CCN(CC)CCNC(=O)c1ccc2cc([125I])ccc2c1.Cl    8.19
2) CCN(CC)CCNC(=O)c1c[nH]c2ccc([125I])cc2c1=O.Cl.Cl    0.96
3) CCN(CC)CCNC(=O)c1ccc([125I])nc1.Cl.Cl    2.53
4) CCN(CC)CCNC(=O)c1ccc2cc([125I])ccc2n1.Cl.Cl    6.17
5) CCN(CC)CCNC(=O)c1cc2cc([125I])ccc2[nH]1.Cl    2.48

---

- Tested on: Thyroid gland
- protocol-summary: Biodistribution in thyroid of C57BL/6 mouse bearing mouse B16-F0 cells at 0.74 to 0.92 MBq, iv after 72 hrs
- Format: ADME, organism-based
- study-conditions: in vivo
metric: Drug uptake

1. CCN(CC)CCNC(=O)c1c[nH]c2ccc([125I])cc2c1=O.Cl.Cl    9.83 % ID/g
2. CCN(CC)CCNC(=O)c1cc2cc([125I])ccc2o1.Cl    15.7 % ID/g
3. CCN(CC)CCNC(=O)c1nc2cc([125I])ccc2[nH]1.Cl.Cl    174.73 % ID/g
4. CCN(CC)CCNC(=O)c1cc2c([125I])cccc2cn1.Cl.Cl    132.79 % ID/g
5. CCN(CC)CCNC(=O)c1ccc([125I])nc1.Cl.Cl    178.8 % ID/g
